Measurement Description: Ratio of kcat/km of PKS TEs assessed as hydrolysis of epothilone
Parameter: kcat/Km (M⁻¹ s⁻¹)

[A] CC(=O)NCCSC(=O)[C@@H](C)NC(=O)OC(C)(C)C
[B] CC(=O)NCCSC(=O)CNC(=O)[C@H](C)NC(=O)OC(C)(C)C
QUERY: Lab note: check whether A or B has the lower measured kcat/Km. Respond using the label that marks the chosen record.
RESULT: A
(A: 12.5 M⁻¹ s⁻¹, B: 110 M⁻¹ s⁻¹)

[a] CC(=O)NCCSC(=O)[C@H](C)NC(=O)OC(C)(C)C
[b] CC(=O)NCCSC(=O)CCNC(=O)c1ccccc1
QUERY: Lab note: check whether a or b has the lower measured kcat/Km. Respond using the label that marks the chosen record.
RESULT: b
(b: 24.2 M⁻¹ s⁻¹, a: 91.3 M⁻¹ s⁻¹)

[1] CC(=O)NCCSC(=O)CNC(=O)[C@@H](C)NC(=O)OC(C)(C)C
[2] CC(=O)NCCSC(=O)CNC(=O)OC(C)(C)C
QUERY: Two entries are listed, 1 and 2 . Which one carries the higher kcat/Km? Respond using the label that marks the chosen record.
RESULT: 2
